Molecular target: Ubiquitin carboxyl-terminal hydrolase 1 (Homo sapiens) (UniProt O94782)
Sequence (O94782 whole entry, looked up): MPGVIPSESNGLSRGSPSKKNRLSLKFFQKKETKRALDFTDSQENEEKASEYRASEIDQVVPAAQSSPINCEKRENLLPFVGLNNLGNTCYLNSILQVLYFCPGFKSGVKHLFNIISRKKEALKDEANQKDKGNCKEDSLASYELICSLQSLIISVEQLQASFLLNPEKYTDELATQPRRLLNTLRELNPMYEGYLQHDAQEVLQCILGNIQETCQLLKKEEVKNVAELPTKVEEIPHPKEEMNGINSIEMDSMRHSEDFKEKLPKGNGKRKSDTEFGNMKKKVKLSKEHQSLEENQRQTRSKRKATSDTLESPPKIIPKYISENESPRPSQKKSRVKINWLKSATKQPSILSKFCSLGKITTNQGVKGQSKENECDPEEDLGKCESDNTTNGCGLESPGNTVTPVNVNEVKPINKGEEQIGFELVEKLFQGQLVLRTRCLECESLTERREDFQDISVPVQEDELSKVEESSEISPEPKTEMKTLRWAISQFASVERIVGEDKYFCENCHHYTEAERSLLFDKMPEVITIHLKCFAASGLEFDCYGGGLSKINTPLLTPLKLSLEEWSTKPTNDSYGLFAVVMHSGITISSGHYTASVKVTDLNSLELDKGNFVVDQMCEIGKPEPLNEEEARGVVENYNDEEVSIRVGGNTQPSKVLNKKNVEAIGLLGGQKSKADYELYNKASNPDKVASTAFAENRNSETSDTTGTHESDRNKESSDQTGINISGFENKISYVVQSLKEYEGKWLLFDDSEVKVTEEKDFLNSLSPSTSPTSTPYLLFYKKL
Test: Inhibitors of USP1/UAF1: Primary Screen; also: nearly all actives have a fitted effect of over 60% in size
Conditions: recombinant USP1/UAF1, Ub-Rhodamine cleavage fluorescence; series mostly up to 57.1 µM
In all, about 390,000 compounds went through this assay and about 910 (0.23%) were called active. Not shown: some 5% with an inconclusive outcome. Calls follow the shape of the dose curve; as a rule, active = well fitted inhibition curve with a large enough effect; inconclusive = small, poorly fitted or top-dose-only effect; inactive = no such curve, though single readings can be large or run the other way. This is one part of a sample in which actives are shown more often than they occur.
Outcome field: choose from label 1 (active), label 0 (inactive)

COc1cc(OC)c(NC(=O)c2c3c(nn2C)-c2ccccc2SC3)cc1Cl :: label 0

Input line: I'd appreciate the recorded outcome for CC(C)NC(=O)c1nn(-c2ccccc2F)nc1CO from this test.
Output line: label 0

Input line: Can you handle Cc1cccc(N2CCN(C(=O)CCSCc3ccccc3F)CC2)c1C next?
Output line: label 0

Input line: Same question, CCOC(=O)c1cnc2c(C)cc(C)cc2c1Nc1ccc(N2CCOCC2)cc1 this time
Output line: label 0

Input line: Again, but for CCc1cccc(NC(=O)CN(c2ccc(C)c(C)c2)S(=O)(=O)c2ccsc2C(=O)OC)c1
Output line: label 0

Input line: Same question for Cc1ccc(Cl)cc1N1CCN(C(=O)c2cccn3c(=O)c4cc(Cl)ccc4nc23)CC1 please.
Output line: label 0

Input line: Same thing, different compound: CSc1nn(Cc2cccc(C)c2)c(N)c1S(=O)(=O)c1ccccc1
Output line: label 0

Input line: Another: Nc1ccc2nc3c(=O)[nH]c(=S)[nH]c3nc2c1
Output line: label 1

====

Biological target: Ubiquitin carboxyl-terminal hydrolase 1 (Homo sapiens) (UniProt O94782)
Test: Inhibitors of USP1/UAF1: Primary Screen; also: nearly all actives have a fitted effect of over 60% in size
Conditions: recombinant USP1/UAF1, Ub-Rhodamine cleavage fluorescence; series mostly up to 57.1 µM
The whole screen tested about 390,000 compounds, of which about 910 (0.23%) were called active. Another 5% or so got no clear call; they are omitted. The call rests on the fitted dose curve; in most records, active means well fitted inhibition curve with a large enough effect; inconclusive means small, poorly fitted or top-dose-only effect; inactive means no such curve, though single readings can be large or run the other way. Many of the other results were omitted from the sample, so actives are more common in it than they were.
Hello, when you answer, please use one of the following outcomes: y for active, n for inactive

Look over these answered cases.
NC1=CC(=O)C(=O)c2cccnc21 :: y
COc1cccc(CNC(=O)CCC(=O)N2CC3CCCN3c3ccccc32)c1 (stereo not drawn) :: n
O=C(CSc1nccn1-c1ccc(F)cc1)Nc1cccc2ccccc12 :: n
Cc1onc(-c2ccc(F)cc2F)c1C(=O)Nc1cccc(C(F)(F)F)c1 :: n
COc1ccc(Cn2ccn(CC(=O)Nc3cc(C)ccc3C)c(=O)c2=O)cc1 :: n

Here's the next entry for you.
Input line: Record lookup: outcome of this test for COc1ccc(OC)c2sc(N3CCN(C(=O)C4COc5ccccc5O4)CC3)nc12 (stereo not drawn) ?
Output line: n

====

Target: Ubiquitin carboxyl-terminal hydrolase 1 (Homo sapiens) (UniProt O94782)
Assay: Inhibitors of USP1/UAF1: Primary Screen; also: nearly all actives have a fitted effect of over 60% in size
Conditions: recombinant USP1/UAF1, Ub-Rhodamine cleavage fluorescence; series mostly up to 57.1 µM
Out of some 390,000 compounds screened, about 910 (0.23%) were called active. Roughly 5% stayed inconclusive and do not appear here. The call rests on the fitted dose curve; in most records, active means well fitted inhibition curve with a large enough effect; inconclusive means small, poorly fitted or top-dose-only effect; inactive means no such curve, though single readings can be large or run the other way. The full list was thinned out, with actives kept by preference.
Choose the fitting class; nothing outside 1 (yes) for active, 0 (no) for inactive is accepted.

Below, 6 compounds whose answers are already recorded.
CCOC(=O)c1ccc(NC(=O)CSc2nc3c([nH]c4ccccc43)c(=O)n2C)cc1 :: 0 (no)
CC1=C(C(=O)OCC(C)C)C(c2ccc(OCc3ccccc3)cc2)N2C(=O)CCSC2=N1 (centres undefined) :: 0 (no)
O=C(Cn1cnc2c(oc3ccccc32)c1=O)Nc1ccc(OC(F)(F)F)cc1 :: 0 (no)
Cc1ccc(OC(=O)CSc2nnc(-c3cccs3)o2)cc1 :: 0 (no)
O=C(C1CCC(Cn2c(=O)c3sccc3n(Cc3ccccc3F)c2=O)CC1)N1CCCCC1 (centres undefined) :: 0 (no)
Cc1ccc(-c2cnc(NCc3ccc(C(C)C)cc3)n2C)cc1 :: 0 (no)

Input line: Given CCC(=O)Nc1c(C(=O)N2CCN(c3ccc(F)cc3)CC2)oc2ccccc12 , state the outcome it received in this test.
Output line: 0 (no)

Input line: Next up: COc1ccc(-c2nc(Cn3c(=O)cc(C)c4c(C)nn(-c5ccccc5)c43)c(C)o2)c(OC)c1
Output line: 0 (no)

Input line: Likewise for Oc1ccc(N=Cc2sc3ccccc3c2Cl)cc1 ?
Output line: 1 (yes)

Input line: Same again, this time with COc1cccc2c1cc1c(=O)n(CC(=O)N3CCN(c4cccc(Cl)c4)CC3)nc(C)n12
Output line: 0 (no)

Input line: # iterate: COc1ccccc1NC(=O)c1sc2nc(C)c(C(=O)Nc3ccc(Cl)cc3)c(-c3ccc(Br)cc3)c2c1N
Output line: 0 (no)

Input line: Now the same for O=C(CSc1nccn1C1CCCC1)Nc1cc(C(F)(F)F)ccc1Cl
Output line: 0 (no)

Input line: Would you mind doing COc1ccc([N+](=O)[O-])cc1C1NN=C(c2cccc3ccccc23)S1 (centres undefined) as well?
Output line: 0 (no)
